The reported numbers originate from patent US11174250B2.

molecular target: WDR5 protein (Homo sapiens (Human), UniProt P61964); assay: Surface Plasmon Resonance (SPR) assay; type: binding; conditions: SPR, Table 1; read-out: WDR5 binding affinity (KD)
pKd: −log10 of the molar value.
Readout Type: pKd

Example results:
Smiles Notation | Value Measured
CN(C)Cc1ccc(F)c(-c2ccc(N3CCN(C)CC3)c(NC(=O)c3c[nH]c(=O)cc3C(F)(F)F)c2)c1 | 8.05
CN1CCN(c2ccc(-c3cccc(CN4CCOCC4)c3F)cc2NC(=O)c2c[nH]c(=O)cc2C(F)(F)F)CC1 | 7.10
CN1CCN(c2ccc(-c3ccnc(N4CCOCC4)c3F)cc2NC(=O)c2c[nH]c(=O)cc2C(F)(F)F)CC1 | 7.55

[a] CNC(=O)c1ccc(F)c(-c2ccc(N3C[C@@H](C)N(C)[C@@H](C)C3)c(NC(=O)c3c[nH]c(=O)cc3C(F)(F)F)c2)c1
[b] CN1CCN(c2ncc(-c3cc(CNC4CCCCC4)ccc3F)cc2NC(=O)c2c[nH]c(=O)cc2C(F)(F)F)CC1
Exercise: When a and b are compared, which has the higher number for pKd? Identify your selection by its label.
Key: a
(a: 8.19, b: 7.82)

###

molecular target: WDR5 protein (Homo sapiens (Human), UniProt P61964); experiment: Surface Plasmon Resonance (SPR) assay; type: binding; conditions: Table 4, effect of Fluoro-substitution; read-out: KD (SPR)
pKd: −log10 of the molar value.
Readout Type: pKd

Compound | Value Measured
CN1CCN(c2ccc(-c3cc(CN4CCOCC4)ccc3Cl)cc2NC(=O)c2c[nH]c(=O)cc2C(F)(F)F)CC1 [drawing 288, reference compound] | 7.46

[A] CN1CCN(c2ccc(-c3cc(CN4CCC(F)CC4)ccc3F)cc2NC(=O)c2c[nH]c(=O)cc2C(F)(F)F)CC1 [drawing 287]
[B] CN1CCN(c2ccc(-c3cccc(CN4CCC(F)CC4)c3)cc2NC(=O)c2c[nH]c(=O)cc2C(F)(F)F)CC1 [reference compound]
[C] CN1CCN(c2ccc(-c3cc(C(=O)NC4CCCCC4)ccc3F)cc2NC(=O)c2c[nH]c(=O)cc2C(F)(F)F)CC1 [drawing 291]
Exercise: Rank by pKd (largest to smallest). Arrange the labels as the request states and list them.
Key: C, A, B
(C: 8.22, A: 7.96, B: 7.52)

###

target: MLL1-WRAD2 complex (Homo sapiens (Human), UniProt P61964); assay: MLL1-WRAD2 enzyme assay (in vitro methyl transferase assay); format: biochemical; conditions: MLL1-WRAD2 assay; read-out: In vitro MLL1 activity (IC50)
pIC50: −log10 of the molar value.
Readout Type: pIC50

Smiles Notation | pIC50
CN1CCN(c2ccc(-c3cc(CN4CCNCC4)ccc3F)cc2NC(=O)c2c[nH]c(=O)cc2C(F)(F)F)CC1 | 5.23
CNC(=O)c1ccc(F)c(-c2ccc(N3C[C@@H](C)N(C)[C@@H](C)C3)c(NC(=O)c3c[nH]c(=O)cc3C(F)(F)F)c2)c1 | 5.96
C[C@@H]1CN(c2ccc(-c3cc(CN4CCOCC4)cnc3F)cc2NC(=O)c2c[nH]c(=O)cc2C(F)(F)F)C[C@H](C)N1C | 5.85
CN1CCN(c2ccc(-c3cc(C(=O)NC4CCCCC4)ccc3F)cc2NC(=O)c2c[nH]c(=O)cc2C(F)(F)F)CC1 | 6.48
CN(C)Cc1ccc(F)c(-c2ccc(N3CCN(C)CC3)c(NC(=O)c3c[nH]c(=O)cc3C(F)(F)F)c2)c1 | 5.20

[P] CN1CCN(c2ccc(-c3cc(CN4CCN(Cc5ccc(F)cc5)CC4)ccc3F)cc2NC(=O)c2c[nH]c(=O)cc2C(F)(F)F)CC1
[Q] CN1CCN(c2ccc(-c3cc(CN4CCC(F)CC4)ccc3F)cc2NC(=O)c2c[nH]c(=O)cc2C(F)(F)F)CC1
[R] CN1CCN(c2ccc(-c3cc(CN4CCC(N5CCOCC5)CC4)ccc3F)cc2NC(=O)c2c[nH]c(=O)cc2C(F)(F)F)CC1
Exercise: Order by pIC50, ascending. Arrange the labels as the request states and list them.
Key: P, R, Q
